Data origin, for the record: ChEMBL document CHEMBL1201862

- Tested on: DLD-1
- PROCEDURE_TEXT: NCI tumour cell line growth inhibition, 48 h
Calls of active or inactive are those of the source. Cut-off read from the data, not from the text of the source: active = GI50 up to about 1.1 µM and inactive = higher.
OBSERVATION_TYPE: GI50

COC(=O)C1=C(C)N(NC(=O)c2ccccc2)C2(O)CCCC(=O)C12C (centres undefined)    > 100 µM (inactive)
c1ccc2c(c1)OCCOCCOc1ccccc1OCCO2    61.9 µM (inactive)
CC(=O)NC1COC(COC(=O)CCCCCCCCCCNC(=O)c2ccc([N+](=O)[O-])c3c(=O)c4ccccc4[nH]c23)C(O)C1OC(C)C(=O)NC(C(=O)NC(CCC(N)=O)C(=O)OCc1ccccc1)C(C)C (centres undefined)    3.21 µM (inactive)
CC(C)c1ccc(O)c(=O)cc1    5.56 µM (inactive)

###

- Test system: NCI/ADR-RES
- PROCEDURE_TEXT: NCI tumour cell line growth inhibition, 48 h
Activity calls are given as the source filed them. No stated cut-off is given here; in the data, active = GI50 up to about 1.1 µM and inactive = higher.
Reported GI50 values for the following compounds.
OBSERVATION_TYPE: GI50

Oc1c(Cl)c(Cl)c(O)c2c1CCCC2    15.5 µM (inactive)
O=c1[nH]/c(=C/c2ccc3c(c2)OCO3)c(=O)[nH]/c1=C/c1ccc2c(c1)OCO2    > 10 µM (inactive)
CCOC(=O)C(Br)(C(N)=O)C1(O)OC(c2ccccc2)=C(Br)C1=O (stereo not given)    60.3 µM (inactive)
Cc1nc2sccn2c1/C=C1/C(=O)Nc2cccc(Cl)c21    34.2 µM (inactive)
Cc1ccc([N+](=O)[O-])cc1S(=O)(=O)Nc1ccc(C2=NN(C(=O)c3ccccc3)C(c3cccs3)C2)cc1 (stereo not given)    30.9 µM (inactive)
COc1ccc2c(c1)[nH]c1c(/C=C/c3ccccc3)nccc12    11 µM (inactive)
O=C1OC2(c3ccccc31)c1cc(I)c(O)c(I)c1Oc1c2cc(I)c(O)c1I    > 100 µM (inactive)
Cc1c2ccc3ccccc3c2c[n+]2ccccc12    55.2 µM (inactive)
C[N+](C)(C)CC(=O)N/N=C(/CC1OC(=O)c2ccccc21)c1ccccc1O (stereo not given)    19.3 µM (inactive)
COc1ccc2c(c1)CCc1c(-c3noc4c3CCc3cc(OC)ccc3-4)noc1-2    > 100 µM (inactive)

###

Recorded GI50, one value per entry.
- Tested on: CCRF-CEM
- PROCEDURE_TEXT: NCI tumour cell line growth inhibition, 48 h
Activity calls are given as the source filed them. Rule as the data show it: active = GI50 up to about 1.1 µM and inactive = higher.
OBSERVATION_TYPE: GI50

Nc1ccc(Oc2ccc(C3(c4ccc(Oc5ccc(N)cc5)cc4)C4CC5C6CC7CC5C3C(C7)C6C4)cc2)cc1    2.62 µM (inactive)
COc1c(C)c(C/C=C(\C)CCCCO[Si](c2ccccc2)(c2ccccc2)C(C)(C)C)c(OC)c(OC)c1OC    > 46.5 µM (inactive)
CC1=NC(=Cc2ccccc2O)C(=O)N1n1c(-c2ccccc2)nc2ccccc2c1=O    26.6 µM (inactive)
CN(C)c1ccc(/C=N/n2c(-c3ccccc3)nc3ccccc3c2=O)cc1    46.8 µM (inactive)
CCOC(=O)C1(C(=O)OCC)COS(=O)OC1    10.6 µM (inactive)
CC(C)Cn1cnc2c(Sc3c([N+](=O)[O-])ncn3C)nc(N)nc21    38.6 µM (inactive)
CN(C)CCCN1c2ccccc2CCc2cccc([N+](=O)[O-])c21    5.38 µM (inactive)
CC1(C)[C@@H]2C[C@H]1C(Cc1cccc(C[C@H]3c4cc(-c5ccccn5)ncc4[C@H]4C[C@@H]3C4(C)C)c1)c1cc(-c3ccccn3)ncc12 (some centres undefined)    0.337 µM (active)
c1ccc2c(c1)SCCC2NC1=NCCO1 (centres undefined)    > 100 µM (inactive)

###

- Test system: OVCAR-8
- PROCEDURE_TEXT: NCI tumour cell line growth inhibition, 48 h
Calls of active or inactive are those of the source. Rule as the data show it: active = GI50 up to about 1.1 µM and inactive = higher.
Some compounds, each annotated with its measured GI50.
OBSERVATION_TYPE: GI50

Oc1ccc(/N=C/c2ccc(/C=N/c3ccc(O)cc3)cc2)cc1    13.8 µM (inactive)
CCN(CC)/C(=C\Cl)Nc1ccccn1.[O-][Cl+3]([O-])([O-])O    > 100 µM (inactive)
Clc1cccc(-c2sc(-c3ccsc3)cc2Cc2ccsc2)c1    > 10 µM (inactive)
C/C(=C1/N=C(c2cc([N+](=O)[O-])ccc2Cl)N(C2=CC=C(Cl)CC2)C1=O)c1cc2ccccc2oc1=O    51.5 µM (inactive)
N=C(c1ccc(-c2cn3cc(C(=N)N4CCCC4)ccc3n2)cc1)N1CCCC1    > 100 µM (inactive)
CN(C)CCCN1c2ccccc2CCc2cccc([N+](=O)[O-])c21    15.9 µM (inactive)
Nc1ccccc1CCCC(=O)O    > 100 µM (inactive)
COC(=O)C1=C(C)N2[C@H](C(=O)O)CO[C@@]2(C)[C@H](C(=O)OC)[C@H]1c1cccc([N+](=O)[O-])c1    > 100 µM (inactive)
OC(C1CCC=NN1C(O)(C(F)(F)F)C(F)(F)F)(C(F)(F)F)C(F)(F)F (stereo not given)    > 10 µM (inactive)
CN(C)CCC(C(=O)C(C)(C)C)c1ccccn1 (stereo not given)    > 100 µM (inactive)

###

- Tested on: OVCAR-4
- PROCEDURE_TEXT: NCI tumour cell line growth inhibition, 48 h
Calls of active or inactive are those of the source. Cut-off read from the data, not from the text of the source: active = GI50 up to about 1.1 µM and inactive = higher.
Each entry below carries its reported GI50.
OBSERVATION_TYPE: GI50

COc1ccc2c(c1)[nH]c1c(/C=C/c3ccccc3)nccc12    19.6 µM (inactive)
COc1ccc2cc3n(c(=O)c2c1)CCc1c-3cc(OC)c(OC)c1OC    > 100 µM (inactive)
Cc1c(-c2ccccc2)c(C#N)c2nnn(C)c(=O)n12    > 100 µM (inactive)
CC#CC#C/C=C1/O[C@]2(CCC(OC(=O)CC(C)C)CO2)[C@@H]2O[C@H]12 (stereo not given in full)    29.6 µM (inactive)
CC(C)c1cc2c(c(O)c1O)[C@@]1(C(=O)O)CCCC(C)(C)[C@@H]1CC2 [CARNOSIC ACID]    39.5 µM (inactive)

###

Recorded GI50 for the following compounds
- Tested on: NCI-H522
- PROCEDURE_TEXT: NCI tumour cell line growth inhibition, 48 h
Activity calls are given as the source filed them. Rule as the data show it: active = GI50 up to about 1.1 µM and inactive = higher.
OBSERVATION_TYPE: GI50

COC(=O)[C@@]12C(=O)C=CC(=O)C1C1C(=CC2C)OC2OC3(CCCCC3)OC21 (stereo partly drawn)    9.71 µM (inactive)
COc1ccc2cc3n(c(=O)c2c1)CCc1c-3cc(OC)c(OC)c1OC    > 100 µM (inactive)
c1ccc(CNCCCCNCCCNCc2ccccc2)cc1    15.2 µM (inactive)

###

# GI50 per record follows
- System: RXF 631
- PROCEDURE_TEXT: NCI tumour cell line growth inhibition, 48 h
Activity calls are given as the source filed them. Rule as the data show it: active = GI50 up to about 1.1 µM and inactive = higher.
OBSERVATION_TYPE: GI50

COc1nc(NC2OCC(OC(C)=O)C(OC(C)=O)C2OC(C)=O)c(-c2csc(N)n2)c(=O)n1C (stereo not given)    > 100 µM (inactive)
N=C(N)NCCCC(NCc1c2ccccc2[n+]([O-])c2ccccc12)C(=O)O (stereo not given)    59.8 µM (inactive)
CC(=O)NC1COC(COC(=O)CCCCCCCCCCNC(=O)c2ccc([N+](=O)[O-])c3c(=O)c4ccccc4[nH]c23)C(O)C1OC(C)C(=O)NC(C(=O)NC(CCC(N)=O)C(=O)OCc1ccccc1)C(C)C (stereo not given)    27.7 µM (inactive)
Cc1nc(-c2ccccc2)cc2c1c(=O)oc1ccccc12    > 100 µM (inactive)
O=C1OC(CC(=O)c2ccc(Cl)c(Cl)c2)C(Cl)=C1Cl (stereo not given)    > 100 µM (inactive)
Cc1cc(=O)oc2c(C3=NN(C=O)C(c4ccccc4)C3)c(O)ccc12 (stereo not given)    25.2 µM (inactive)
CCN(CC)CCCC(C)Nc1c2cc(OC)cc(C)c2nc2c(C)c(Cl)ccc12 (stereo not given)    1.79 µM (inactive)
CC(=O)Oc1c(C)c(-c2ccccc2)c(C)c(-c2ccccc2)c1C(=S)c1ccccc1    > 100 µM (inactive)
O=c1[nH]c(=O)n(C2OC(CO)C(O)C2O)cc1/N=N/NCc1ccccc1 (stereo not given)    > 100 µM (inactive)
COc1cc(O)c(C(=O)C2Cc3ccccc32)c(OC)c1 (stereo not given)    86.9 µM (inactive)

###

- Test system: ACHN
- PROCEDURE_TEXT: NCI tumour cell line growth inhibition, 48 h
The source made the active and inactive calls. Cut-off read from the data, not from the text of the source: active = GI50 up to about 1.1 µM and inactive = higher.
OBSERVATION_TYPE: GI50

CC1CCC2[C@@H](C)COC3O[C@]4(C)CCC1C32OO4 (stereo partly specified)    > 100 µM (inactive)
CC(=O)OC(CCC1(C)OC1COc1ccc(CCNC(=O)C=C(C)C)cc1)C(C)(C)OC(C)=O (stereo unspecified)    3.61 µM (inactive)
COc1cc(C2c3cc4c(cc3OC(NNc3ccccc3)C2C)OCO4)cc(OC)c1O (stereo unspecified)    0.159 µM (active)
COc1cc2cc(C(=O)Nc3cc4n(n3)-c3ccccc3C4)[nH]c2c(OC)c1OC    4.72 µM (inactive)
O=c1[nH]c2ccccc2c(=O)n1/N=C\c1ccccc1O    > 100 µM (inactive)
COC(=O)C1=C(C)N(NC(=O)OC(C)(C)C)C(=O)C1=P(c1ccccc1)(c1ccccc1)c1ccccc1    > 100 µM (inactive)
COc1cc(N2C(=O)C(=O)C3(CCCCC3)C2=O)cc(OC)c1OC    > 100 µM (inactive)
CC1=C(C(=O)N[C@@H](Cc2ccccc2)C(=O)O)N2C(=O)[C@@H](NC(=O)[C@@H](N)CC(C)C)[C@H]2SC1    > 100 µM (inactive)
CC(=O)OC1COC(Nc2nc(N)n(C)c(=O)c2N=O)C(OC(C)=O)C1OC(C)=O (stereo unspecified)    > 10 µM (inactive)
CN(C)CCCN1c2ccccc2CCc2cccc([N+](=O)[O-])c21    22.5 µM (inactive)
O=c1c2ccccc2sc2nc(O)nn12    > 100 µM (inactive)
O=C(CCN1CC2CCC(CC2)C1)c1cccs1    18.7 µM (inactive)
COc1nc2[nH]ccc2c(=O)n1C    > 100 µM (inactive)
O=C(O)c1c2c(c(C(=O)O)c3ccccc13)-c1ccccc1-2    30.8 µM (inactive)
O=C1/C(=C\c2cccc(Oc3ccccc3)c2)S(=O)(=O)C(c2ccccc2)N1c1ccc(Cl)cc1 (stereo unspecified)    12.9 µM (inactive)
CC(=O)OCc1ncccc1C(OC(C)=O)OC(C)=O    > 100 µM (inactive)
NP(=O)(OCC1=CC(=O)c2ccccc2C1=O)N(CCBr)CCBr (stereo unspecified)    1.44 µM (inactive)
COC1OC(CBr)C(OC(c2ccccc2)(c2ccccc2)c2ccccc2)C(OC(c2ccccc2)(c2ccccc2)c2ccccc2)C1OC(c1ccccc1)(c1ccccc1)c1ccccc1 (stereo unspecified)    45.9 µM (inactive)
CC(=O)OCc1cc2c(s1)C(=O)c1sccc1C2=O    0.0881 µM (active)
CC1(C)N=C(/C(Cl)=[N+](/[O-])C(=O)c2ccc(F)cc2)C(C)(C)N1O    19.1 µM (inactive)
N=C(N)NC(=N)Nc1ccccc1.Sc1nc2ccccc2s1    > 100 µM (inactive)
